Would you kindly list MIC for each of these molecules?
# System: Bacillus subtilis
# testDetails: Antibacterial activity against Bacillus subtilis 168 by dilution technique
# Assay type: functional
# protocolConditions: subsp. subtilis str. 168
Entry rule: numbers only, all in mg/L.

For C=C(C)[C@@H]1CC[C@]2(C(=O)O)CC[C@]3(C)[C@H](CC[C@@H]4[C@@]5(C)CC[C@H](O)[C@@](C)(CO)[C@@H]5CC[C@]43C)[C@@H]12 the molecule record lists MIC as 8

For CC(C)(O)[C@@H]1CC[C@@](C)([C@H]2CC[C@]3(C)[C@@H]2[C@H](O)C[C@@H]2[C@@]4(C)CC[C@H](O)C(C)(C)[C@@H]4CC[C@]23C)O1 the molecule record lists MIC as 8

For CC(C)(O)[C@H]1CC[C@@](C)([C@H]2CC[C@]3(C)[C@@H]2[C@H](OC(=O)c2ccccc2C(=O)O)C[C@@H]2[C@@]4(C)CC[C@H](O)C(C)(C)[C@@H]4CC[C@]23C)O1 the molecule record lists MIC as 16

For CC(C)(O)[C@H]1CC[C@@](C)([C@H]2CC[C@]3(C)[C@@H]2C(=O)C[C@@H]2[C@@]4(C)CC[C@H](O)C(C)(C)[C@@H]4CC[C@]23C)O1 the molecule record lists MIC as 128

For CC(C)(O)[C@@H]1CC[C@@](C)([C@H]2CC[C@]3(C)[C@@H]2[C@H](OC(=O)c2ccccc2C(=O)O)C[C@@H]2[C@@]4(C)CC[C@H](O)C(C)(C)[C@@H]4CC[C@]23C)O1 the molecule record lists MIC as 16

* * *

# Tested on: Staphylococcus aureus
# testDetails: Antibacterial activity against community associated methicillin-resistant Staphylococcus aureus USA300 by dilution technique
# Type: functional
Would you kindly list MIC for each of these molecules?
Entry rule: numbers only, all in µg/mL.

For CC(C)(O)[C@H]1CC[C@@](C)([C@H]2CC[C@]3(C)[C@@H]2[C@H](OC(=O)c2ccccc2C(=O)O)C[C@@H]2[C@@]4(C)CC[C@H](O)C(C)(C)[C@@H]4CC[C@]23C)O1 the molecule record lists MIC as 64

For CC(C)=CCC[C@](C)(O)[C@H]1CC[C@]2(C)[C@@H]1[C@H](O)C[C@@H]1[C@@]3(C)CC[C@H](O)C(C)(C)[C@@H]3CC[C@]12C the molecule record lists MIC as 32

For CC(C)(O)[C@@H]1CC[C@@](C)([C@H]2CC[C@]3(C)[C@@H]2C(=O)C[C@@H]2[C@@]4(C)CCC(=O)C(C)(C)[C@@H]4CC[C@]23C)O1 the molecule record lists MIC as 16

* * *

# System: Staphylococcus aureus
# testDetails: Antibacterial activity against community associated methicillin-resistant Staphylococcus aureus USA300 by dilution technique
# Assay type: functional
reportedEndpoint: log10 MIC (log10 of the value in µg/mL)
Answers are given as log10 of MIC in µg/mL.

For C=C(C)[C@@H]1CC[C@]2(C(=O)O)CC[C@]3(C)[C@H](CC[C@@H]4[C@@]5(C)CC[C@H](O)[C@@](C)(CO)[C@@H]5CC[C@]43C)[C@@H]12 the molecule record lists log10 MIC as 1.20

For NC[C@H]1O[C@H](O[C@H]2[C@H](O)[C@@H](O[C@H]3O[C@H](CO)[C@@H](O)[C@H](N)[C@H]3O)[C@H](N)C[C@@H]2N)[C@H](O)[C@@H](O)[C@@H]1O the molecule record lists log10 MIC as 0.00

For O=C(N[C@H](CO)[C@H](O)c1ccc([N+](=O)[O-])cc1)C(Cl)Cl the molecule record lists log10 MIC as 0.60

For CC(C)(O)[C@@H]1CC[C@@](C)([C@H]2CC[C@]3(C)[C@@H]2[C@H](OC(=O)c2ccccc2C(=O)O)C[C@@H]2[C@@]4(C)CC[C@H](O)C(C)(C)[C@@H]4CC[C@]23C)O1 the molecule record lists log10 MIC as 1.51

For CC(C)(O)[C@@H]1CC[C@@](C)([C@H]2CC[C@]3(C)[C@@H]2[C@H](O)C[C@@H]2[C@@]4(C)CC[C@H](O)C(C)(C)[C@@H]4CC[C@]23C)O1 the molecule record lists log10 MIC as 0.90
